// provenance: PubChem BioAssay (NCI)

# Test system: HCC-2998 colon
# assay-method-text: NCI-60 one-dose screen, 48 h
# experimental-setup: 10 µM unless noted
About 83,000 compounds went through this panel and 20% of them were active in at least one assay; those are over-represented in the sample as a whole. Calls of active or inactive are those of the source. Rule for the calls: active = growth percent below 10; inactive = the rest.
Outcome codes: active, inactive

molecule: CC(C)CN1CC(C(=O)Nc2ccc3c(c2)-c2ccccc2C3)CC1=O (stereo not given)
group: inactive
//
molecule: Oc1c(Cl)cc(Cl)c2ccc(Cn3cc(-c4cccc(C(F)(F)F)c4)nn3)nc12
group: inactive
//
molecule: CN1CCN(Cc2cc(NC(=O)c3cccc(C#Cc4cccc5[nH]nc(N)c45)c3)cc(C(F)(F)F)c2)CC1
group: active
//
molecule: CCN(CC)CCCNCc1cc(-c2ccccc2)nc2cc(Cl)ccc12
group: active
//
molecule: O=C(CN1C(=O)NC2NC(=O)NC21)N/N=C/c1ccc(Cl)cc1Cl (stereo not given)
group: inactive
//
molecule: CN1CCN(c2ccc3c(c2)nc(NNC(=O)c2cnccn2)c2cccn23)CC1
group: inactive
//
molecule: Cc1c2cnccc2c(C)c2c1c1cc(C3OCCCO3)ccc1n2C
group: active
//
molecule: Cc1ccc(-c2cc(C(=O)N3N=C(c4ccc(N)cc4)CC3c3ccc(Cl)cc3)c3ccccc3n2)cc1 (stereo not given)
group: inactive
//
molecule: CCOC(=O)Cn1c(=O)c2c3ccccc3n(C)c2n2nnc(-c3ccccc3)c12
group: inactive
//
molecule: CCCCc1oc2ccccc2c1C(=O)c1ccc(O)cc1
group: inactive

---

# System: BT-549 breast
# assay-method-text: NCI-60 one-dose screen, 48 h
# experimental-setup: 10 µM unless noted
Compounds without any hit were thinned out: in the full panel of roughly 83,000, 20% have a hit. Active and inactive are the calls of the source. How the source made its calls: active means growth percent below 10; inactive means the rest.
Possible outcomes: TRUE = active, FALSE = inactive

compound: O=C(c1ccc(F)c(Cl)c1)N1c2ccccc2Sc2ccccc21
group: FALSE
--
compound: S=c1ssnc1-c1cccs1
group: FALSE
--
compound: O=C1/C(=C/c2ccccc2[N+](=O)[O-])COc2ccc(O)cc21
group: FALSE
--
compound: CCN(CC)CCCC(C)Nc1ccc2cc(OC)ccc2n1 (stereo unspecified)
group: FALSE
--
compound: COC(=O)C1=C(C(=O)Nc2cccnc2)C2OC1(C(Cc1ccccc1)Oc1ccccc1)C1OC21 (stereo unspecified)
group: FALSE
--
compound: COc1cc(C(=O)/C=C/c2c(-c3cccs3)nc3ccccn23)cc(OC)c1OC
group: TRUE
--
compound: CCOC(=O)c1c(C)c2c(n1C)CSc1cc(S(=O)(=O)c3ccccc3)c(=O)[nH]c1-2
group: TRUE
--
compound: CCN(CC)CCOc1nc2c3ccc(Cl)cc3nn2c2ccccc12
group: FALSE
--
compound: COc1ccc(OC)c(Nc2nnc(-c3ccc(Cl)cc3)o2)c1
group: FALSE
--
compound: N#CC(C#N)N=Nc1ccc(Cl)cc1Cl
group: FALSE
--
compound: CS(=O)(=O)Cc1cnc(C2OCCO2)s1
group: FALSE

---

# System: KM12 colon
# assay-method-text: NCI-60 one-dose screen, 48 h
# experimental-setup: 10 µM unless noted
About 83,000 compounds went through this panel and 20% of them were active in at least one assay; those are over-represented in the sample as a whole. Calls of active or inactive are those of the source. Rule for the calls: active = growth percent below 10; inactive = the rest.
Labels: active, inactive

molecule: O=C1Nc2ccccc2C2c3cccn3-c3ccccc3N12 (stereo unspecified)
group: inactive

molecule: O=C1C(Cl)=C(NCCN2CCOCC2)C(=O)c2ncccc21
group: inactive

molecule: NS(=O)(=O)c1ccc(N/C=C/C(=O)c2cc3ccccc3oc2=O)cc1
group: inactive

molecule: O=C1CCCc2nc3sc4c(=O)n(-c5ccccc5Cl)nnc4c3cc21
group: inactive

molecule: CC(C)(CO)N(CCO)CCO
group: inactive

molecule: CCN(CCO)CC(C)Nc1ccc([N+](=O)[O-])c2sc3ccccc3c(=O)c12 (stereo unspecified)
group: inactive

molecule: N=C(N)c1ccc(-c2ccc(-c3ccc(Cl)cc3Cl)s2)cc1F
group: active

molecule: CC(=O)c1c(Nc2ccc(F)c(F)c2F)[nH]c2c(F)cc(F)cc2c1=O
group: active

molecule: CSCCC(NC(=O)c1ccccc1)C(=O)N/N=C1\S/C(=C/c2ccc(Cl)cc2)C(=O)N1C (stereo unspecified)
group: inactive

molecule: O=c1[nH]c(-c2ccc(Cl)cc2)cn1-c1ccc(-n2cc(-c3ccc(Cl)cc3)[nH]c2=O)cc1
group: inactive

molecule: COc1cc(C#Cc2ccc(=O)oc2C#Cc2ccccc2)cc(OC)c1OC
group: inactive

molecule: Cc1ccc2[nH]c(=O)c3c(c2c1)OC(N)=C(C#N)C31C(=O)c2cccc3cccc1c23 (stereo unspecified)
group: inactive

molecule: O=C(CCCCl)NNc1nccc(Nc2ccc(S(=O)(=O)Nc3ccncc3)cc2)n1
group: inactive

molecule: COc1cc2c(/C=C3\C(=O)Nc4ccccc43)c(C(=O)O)[nH]c2cc1C
group: inactive

molecule: O=C(Cn1nnc2ccccc21)Nc1ccc(-c2nc3ccccc3s2)cc1
group: inactive

molecule: COC(=O)/C=C1/SC(=Nc2cccc(Cl)c2)N(CCc2c[nH]c3ccc(O)cc23)C1=O
group: inactive

molecule: COc1cc(OC)cc(C2C(C#N)=C(N)Oc3c2ccc2ccc(O)cc32)c1 (stereo unspecified)
group: active

molecule: O[C@@H](c1cc(C(F)(F)F)nc2c(C(F)(F)F)cccc12)[C@H]1CCCCN1
group: inactive

molecule: O=c1ccc2nc(C(F)(F)F)nn(-c3ccccc3)c-2c1
group: inactive

molecule: N#Cc1c(N2CCOCC2)nc(=S)[nH]c1-c1ccccc1
group: inactive

molecule: COc1cc(C(=O)/C=C/c2c(-c3cccs3)nc3ccccn23)cc(OC)c1OC
group: active

---

# Test system: MDA-MB-435 melanoma
# assay-method-text: NCI-60 one-dose screen, 48 h (100 = growth as untreated, 0 = no growth, -100 = all killed)
# experimental-setup: 10 µM unless noted
The panel holds about 83,000 compounds, 20% with a hit somewhere; the sample as a whole holds those more often.
Lab note: compare growth with 50%, writing true (1) if less and false (0) if equal or more.

compound: Cc1ccc2[nH]c(=O)c3c(c2c1)OC(N)=C(C#N)C31C(=O)c2cccc3cccc1c23 (stereo not given)
group: false (0)

compound: C=CCOC(=O)C1=C(C)NC(=O)NC1c1c(Cl)n(C)c2ccccc12 (stereo not given)
group: false (0)

compound: N#Cc1nc2c(S(=O)(=O)c3ccccc3)c(N)n(Cc3cccnc3)c2nc1C#N
group: false (0)

compound: O=C(c1ccc(Cl)cc1Cl)N1c2ccccc2Sc2ccccc21
group: true (1)

compound: N#Cc1c(-c2cccc([N+](=O)[O-])c2)cc(-c2ccc(Nc3nc(Nc4ccc(F)cc4)nc(Nc4ccc(F)cc4)n3)cc2)nc1N
group: false (0)

compound: O=C1/C(=C/c2ccc(C(F)(F)F)cc2)COc2ccc(O)c(O)c21
group: true (1)

compound: Cc1ccc(N=Nc2c(N)nn(-c3ccccc3)c2N)cc1
group: true (1)

compound: COc1cc(C#Cc2ccc(=O)oc2C#Cc2ccccc2)cc(OC)c1OC
group: false (0)

compound: COc1cc2oc(-c3cccc(NC(=O)c4ccc5c(c4)OCO5)c3)cc(=O)c2c(OC)c1OC
group: false (0)

---

# System: SNB-19 CNS
# assay-method-text: NCI-60 one-dose screen, 48 h
# experimental-setup: 10 µM unless noted
The panel holds about 83,000 compounds, 20% with a hit somewhere; the sample as a whole holds those more often. Active and inactive are the calls of the source. Rule for the calls: active = growth percent below 10; inactive = the rest.
Possible outcomes: active, inactive

molecule: CCc1cccc(Sc2cc(C(=O)N3Cc4ccc(OCCN(C)C)cc4C3)ccc2O)c1
study-target: SNB-19 CNS
group: inactive

molecule: CN(C)Cc1ccc(C(=O)Nc2ccc3ncnc(Nc4ccc(Oc5cccc(F)c5)c(Cl)c4)c3c2)cc1
study-target: SNB-19 CNS
group: active

molecule: CCOC(=O)c1c(C)nn(CC(O)c2ccccc2)c1NC(=O)Nc1cccc(F)c1 (stereo not drawn)
study-target: SNB-19 CNS
group: inactive

molecule: COc1cc(/C=C/c2cc(/C=C/c3ccc(O)c(OC)c3)n(C(=O)Nc3ccc(F)cc3)n2)ccc1O
study-target: SNB-19 CNS
group: inactive

molecule: C=C(CO)[C@@H]1CC[C@]2(COC3CCCCO3)CC[C@]3(C)[C@H](CC[C@@H]4[C@@]5(C)C=C(C=O)C(=O)C(C)(C)[C@@H]5CC[C@]43C)[C@@H]12 (stereo partly drawn)
study-target: SNB-19 CNS
group: active

molecule: O=C(CN1C(=O)/C(=C/c2ccco2)SC1=S)NCCc1c[nH]c2ccc(F)cc12
study-target: SNB-19 CNS
group: inactive

molecule: CCCCN1C(=O)/C(=c2\sc3n(c2=O)NC2C(N=3)N(CC)C(=O)N2CC)c2ccccc21 (stereo not drawn)
study-target: SNB-19 CNS
group: inactive

molecule: COC(=O)c1c2c(n3ccc(C)cc13)C(=O)c1ccccc1C2=O
study-target: SNB-19 CNS
group: inactive

molecule: COc1cc2c3c(n(CCCCNCCCn4c5c(c6cc(OC)c(OC)cc6c4=O)C(=O)c4cc6c(cc4-5)OCO6)c(=O)c2cc1OC)-c1cc2c(cc1C3=O)OCO2
study-target: SNB-19 CNS
group: inactive

molecule: O=C1c2cc3c(cc2-c2c1c1ccc(Cl)cc1c(=O)n2C[C@H](O)CO)OCO3
study-target: SNB-19 CNS
group: inactive

molecule: Cc1cccc(-n2c(C)nc3ccc(N4CCCNC4=O)cc3c2=O)c1
study-target: SNB-19 CNS
group: inactive

molecule: CCCCCn1sc(=O)n(Cc2ccc(CNC(=O)OCc3ccc4c(Cl)cc(Cl)c(O)c4n3)cc2)c1=O
study-target: SNB-19 CNS
group: inactive

molecule: CCOC(=O)C/C(=N\Nc1cc(=O)[nH]c2ccc(Cl)cc12)C(=O)OCC
study-target: SNB-19 CNS
group: inactive

molecule: Cn1c(=O)c2c(c3ccccc31)OC(N)=C(C#N)C21C(=O)c2ccccc2C1=O
study-target: SNB-19 CNS
group: inactive

molecule: CCC(CC)(N(CC(=O)O)CC(=O)O)C(CC)(CC)N(CC(=O)O)CC(=O)O
study-target: SNB-19 CNS
group: inactive

molecule: Cc1cc(C)c(-c2c(O)c(Br)c(-c3c(C)cc(C)c(Br)c3C)c(O)c2Br)c(C)c1Br
study-target: SNB-19 CNS
group: inactive

molecule: C=C1C(=O)O[C@H]2[C@H]1CC/C(COC(=O)c1cc3cc(F)ccc3[nH]1)=C\CC[C@@]1(C)O[C@@H]21
study-target: SNB-19 CNS
group: active

molecule: COc1cc(OC)cc(C2C(C#N)=C(N)Oc3c2ccc2ccc(O)cc32)c1 (stereo not drawn)
study-target: SNB-19 CNS
group: inactive
